Quick reference for B-score of Tl+ flux slope (higher = more flux/activation; lower = inhibition) among some compounds
target: Solute carrier family 12 member 5 (Homo sapiens); experiment: modulation of human KCC2 ion transport – cell-based, HEK293 KCC2, FluoZin-2 fluorescence, MLSMR, primary screen (AID 1456); conditions: KCC2 cells, thallium flux FluoZin-2 fluorescence; at 10 µM;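 also: slope of fluorescence scaled to starting intensity during 10 to 20 s after thallium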
Among all 190,000 compounds or so, about 4,100 (2.2%) were called active. The sample holds actives, similar compounds and a random draw of the others, so the mix is not that of the screen.
Reply with the value as a number alone.

As a guide, the following entries are already answered.
# Structure string, Reported
rows = [
    ("COc1ccc(Cl)cc1C(=O)NNC(=O)c1nc2nc(C)cc(C)n2n1", -1.53),
    ("O=C(NNS(=O)(=O)c1ccccc1C(F)(F)F)c1cc2ncc(C(F)(F)F)cc2s1", -0.726),
    ("COC(=O)c1c(C)oc(C)c1S(=O)(=O)NCc1ccc(Cl)cc1", -0.208),
    ("CCOC(=O)c1cn(CC)c2cc(F)c(F)cc2c1=O", -0.139),
    ("CCOc1ccccc1N1CN(Cc2ccccc2)CNC1=S", -0.426),
    ("CS(=O)(=O)c1ccc(Cl)c(NC(=O)Nc2ccccc2)c1", -0.0556),
]

Sample COc1ccccc1N1CCN(C(=O)CSc2ncnc3c2cnn3-c2ccc(C)c(C)c2)CC1 — what was its B-score of Tl+ flux slope (higher = more flux/activation; lower = inhibition)?
5.99

Sample Cc1ccc(C(=O)NNC2=Nc3cc([N+](=O)[O-])ccc3OC2)cc1 — what was its B-score of Tl+ flux slope (higher = more flux/activation; lower = inhibition)?
0.865

Sample COC(=O)c1ccc(COc2cc([N+](=O)[O-])cc3cccnc23)cc1 — what was its B-score of Tl+ flux slope (higher = more flux/activation; lower = inhibition)?
0.95

---

target: Solute carrier family 12 member 5 (Homo sapiens); test: modulation of human KCC2 ion transport – cell-based, HEK293 KCC2, FluoZin-2 fluorescence, MLSMR, primary screen (AID 1456); details: KCC2 cells, thallium flux FluoZin-2 fluorescence; at 10 µM
Among all 190,000 compounds or so, about 4,100 (2.2%) were called active.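 The calls were made as follows: active = thallium flux slope and its plate-corrected score both differing from the plate sample mean at a set confidence after two filtering rounds, in either direction; inactive = the rest.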 What follows is part of a selection rich in actives, with near analogues and random picks from the rest.
Give one outcome, nothing more. List: active, inactive

# Compound, Answer label
rows = [
    ("O=C(Nc1nnc(-c2ccco2)o1)c1ccc(S(=O)(=O)N2CCOCC2)cc1", "inactive"),
    ("CN(C)c1ccc(/C=C2\\NC(=S)N(Cc3ccccc3)C2=O)cc1", "inactive"),
    ("O=C(Nc1nnc(C2COc3ccccc3O2)o1)c1ccc(F)cc1 (stereo unspecified)", "active"),
    ("O=C(Nc1ccncc1)c1ccccc1[N+](=O)[O-]", "inactive"),
    ("Cc1onc(-c2ccccc2)c1C(=O)N1CCOCC1", "inactive"),
]

// outcome(item) with item = COc1ccc(C(=O)NC(=S)NNC(=O)c2c(-c3ccccc3)noc2C)cc1
active

// outcome(item) with item = O=C(Nc1nnc(C2CC2)s1)C1=NN(C2CCS(=O)(=O)C2)C(=O)CC1 (stereo unspecified)
inactive

// outcome(item) with item = O=C(CN1C(=O)COc2ccccc21)Nc1ccc(F)cc1
inactive

// outcome(item) with item = Cc1onc(-c2ccccc2)c1C(=O)N=C(N)c1ccc(Cl)cc1
inactive

// outcome(item) with item = COc1cccc(-c2nnc(NC(=O)c3ccc(S(=O)(=O)N(CC(C)C)CC(C)C)cc3)o2)c1
active

// outcome(item) with item = S=C(NNC(=S)NC1CC2CCC1C2)NC1CC2C=CC1C2 (stereo unspecified)
inactive

---

biological target: Solute carrier family 12 member 5 (Homo sapiens) (UniProt Q9H2X9); assay: modulation of human KCC2 ion transport – cell-based, HEK293 KCC2, FluoZin-2 fluorescence, MLSMR, primary screen (AID 1456); conditions: KCC2 cells, thallium flux FluoZin-2 fluorescence; at 10 µM
Sequence (Q9H2X9 whole entry, looked up): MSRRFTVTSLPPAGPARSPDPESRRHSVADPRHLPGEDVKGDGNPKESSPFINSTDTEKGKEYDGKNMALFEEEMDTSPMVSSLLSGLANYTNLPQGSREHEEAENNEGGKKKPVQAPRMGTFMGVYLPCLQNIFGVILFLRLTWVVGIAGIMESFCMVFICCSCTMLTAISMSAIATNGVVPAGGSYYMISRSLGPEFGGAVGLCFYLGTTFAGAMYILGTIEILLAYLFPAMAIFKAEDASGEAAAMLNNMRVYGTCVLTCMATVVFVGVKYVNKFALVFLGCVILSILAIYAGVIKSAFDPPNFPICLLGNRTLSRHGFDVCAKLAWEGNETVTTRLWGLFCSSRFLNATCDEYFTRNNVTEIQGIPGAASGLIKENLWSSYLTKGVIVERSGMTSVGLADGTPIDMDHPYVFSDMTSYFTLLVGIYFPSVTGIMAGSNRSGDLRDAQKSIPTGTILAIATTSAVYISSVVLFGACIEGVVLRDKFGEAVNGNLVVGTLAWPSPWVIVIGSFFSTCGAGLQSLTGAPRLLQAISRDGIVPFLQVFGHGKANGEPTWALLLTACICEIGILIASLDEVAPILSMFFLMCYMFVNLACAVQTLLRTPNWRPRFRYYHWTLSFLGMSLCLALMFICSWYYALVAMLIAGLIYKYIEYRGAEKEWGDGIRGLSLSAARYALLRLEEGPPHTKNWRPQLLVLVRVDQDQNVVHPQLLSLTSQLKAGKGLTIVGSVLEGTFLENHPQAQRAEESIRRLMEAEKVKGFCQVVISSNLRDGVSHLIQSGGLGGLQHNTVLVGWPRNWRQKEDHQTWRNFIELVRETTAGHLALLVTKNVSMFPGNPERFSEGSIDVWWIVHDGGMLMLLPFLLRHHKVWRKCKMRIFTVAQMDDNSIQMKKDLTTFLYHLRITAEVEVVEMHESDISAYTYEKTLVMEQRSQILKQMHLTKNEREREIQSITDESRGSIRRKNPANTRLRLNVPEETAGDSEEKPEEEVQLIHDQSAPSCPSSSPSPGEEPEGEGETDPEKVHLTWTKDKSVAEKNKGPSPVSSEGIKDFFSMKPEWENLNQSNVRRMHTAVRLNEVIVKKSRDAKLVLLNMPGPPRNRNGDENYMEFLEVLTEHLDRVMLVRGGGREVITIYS
Out of some 190,000 compounds screened, about 4,100 (2.2%) were called active.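 How the source made its calls: active means thallium flux slope and its plate-corrected score both differing from the plate sample mean at a set confidence after two filtering rounds, in either direction; inactive means the rest.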 For the sample, actives were picked, then their nearest neighbours and some compounds at random.
Give one outcome, nothing more. List: true (1) = active, false (0) = inactive

// outcome(item) with item = O=C(CSc1ccc(-c2cccs2)nn1)Nc1ccccc1F
true (1)

// outcome(item) with item = c1ccc(Nc2n[nH]nc2-c2ccccc2)cc1
false (0)

// outcome(item) with item = Cc1cc2cc(CN(Cc3cccs3)Cc3nnnn3CC3CCCO3)c(=O)[nH]c2cc1C (centres undefined)
false (0)

// outcome(item) with item = CCCCN1CCNC1=S
false (0)

// outcome(item) with item = Oc1oc(-c2ccccc2Br)nc1/C=N/c1ccccn1
false (0)

// outcome(item) with item = COc1ccc(OCC(O)CNCCNc2nccc(C(F)(F)F)n2)cc1 (centres undefined)
false (0)

// outcome(item) with item = COc1ccc2c(CN3CCN(S(=O)(=O)c4cccs4)CC3)cc(=O)oc2c1
false (0)

// outcome(item) with item = O=C(CSc1nnnn1-c1ccc(O)cc1)N1N=C(c2ccc3ccccc3c2)CC1c1ccccc1 (centres undefined)
false (0)

// outcome(item) with item = CC(=O)Nc1ccc(S(=O)(=O)NC2(C(F)(F)F)C(=O)NC(C)=C2C#N)cc1 (centres undefined)
false (0)

---

target: Solute carrier family 12 member 5 (Homo sapiens) (UniProt Q9H2X9); test: modulation of human KCC2 ion transport – cell-based, HEK293 KCC2, FluoZin-2 fluorescence, MLSMR, primary screen (AID 1456); conditions: KCC2 cells, thallium flux FluoZin-2 fluorescence; at 10 µM;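 also: slope of fluorescence scaled to starting intensity during 10 to 20 s after thallium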
About 4,100 (2.2%) of roughly 190,000 compounds were called active.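 How the source made its calls: active means thallium flux slope and its plate-corrected score both differing from the plate sample mean at a set confidence after two filtering rounds, in either direction; inactive means the rest.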 The sample holds actives, similar compounds and a random draw of the others, so the mix is not that of the screen.
Give one outcome, nothing more. List: true for active, false for inactive

Answered cases to consult:
# Structure string, Answer label
records = [
    ("O=C(c1ccc(=O)oc1)N1CCC(C(O)(c2ccccc2)c2ccccc2)CC1", "false"),
    ("CC(C)c1ccc2c(c1)c(SC(C)(C)C)c(CC(C)(C)C(=O)O)n2Cc1ccc(Cl)cc1", "true"),
    ("COCCCNC(=O)CSc1nc2ccc(N3CCOCC3)cc2c(=O)n1CCc1ccccc1", "false"),
]

// outcome(item) with item = Fc1cc(F)c2nc(N3CCOCC3)sc2c1
false

---

biological target: Solute carrier family 12 member 5 (Homo sapiens) (UniProt Q9H2X9); assay: modulation of human KCC2 ion transport – cell-based, HEK293 KCC2, FluoZin-2 fluorescence, MLSMR, primary screen (AID 1456); conditions: KCC2 cells, thallium flux FluoZin-2 fluorescence; at 10 µM;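 also: slope of fluorescence scaled to starting intensity during 10 to 20 s after thallium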
Screen size: about 190,000 compounds; about 4,100 (2.2%) were called active. The sample as a whole holds a higher share of actives than the screen did.
Classify on B-score of Tl+ flux slope (higher = more flux/activation; lower = inhibition) using c1 (below 0.09), c2 (0.09 to below 0.6), c3 (0.6 or more)

Answered cases to consult:
# Molecule, Answer label
rows = [
    ("CCCCN(C)Cc1c(C)[nH]c2ccc(Cl)cc2c1=O", "c1"),
    ("CC(C)Cc1ccc(C(C)C(=N)N)cc1 (centres undefined)", "c3"),
    ("S=C(Cc1ccc(Cl)cc1)N1CCOCC1", "c2"),
    ("O=C(N/N=C1\\CCSC1)c1cc(Cl)ccc1O", "c2"),
    ("O=C(COC(=O)c1ccccc1SCC(=O)NC1CCCCC1)NC1CCCCC1", "c2"),
    ("C=CCn1c(-c2ccc3[nH]c(C)c(C)c3c2)n[nH]c1=S", "c1"),
    ("COc1ccc(Cl)cc1NC(=O)CN(C)C(=O)CNC(=O)C12CC3CC(CC(C3)C1)C2", "c1"),
    ("CCCCn1c(=S)[nH]c2ccccc2c1=O", "c3"),
    ("Cn1c(=O)c2c(nc(NCc3ccccc3)n2CC(N)=O)n(C)c1=O", "c2"),
    ("Cc1cc(-c2csc(N)n2)c(C)n1Cc1ccccc1", "c3"),
]

Where would NCCCCCC(=O)N/N=C/c1ccc2nccnc2c1 land among the classes by reported B-score of Tl+ flux slope (higher = more flux/activation; lower = inhibition)?
c3

Where would Cc1cc(C(=O)OCC(=O)Nc2nccs2)c2ccccc2n1 land among the classes by reported B-score of Tl+ flux slope (higher = more flux/activation; lower = inhibition)?
c1

Where would O=c1c2ccccc2[nH]c(=S)n1CCN1CCC(=C(c2ccc(F)cc2)c2ccc(F)cc2)CC1 land among the classes by reported B-score of Tl+ flux slope (higher = more flux/activation; lower = inhibition)?
c3

---

target: Solute carrier family 12 member 5 (Homo sapiens) (UniProt Q9H2X9); assay: modulation of human KCC2 ion transport – cell-based, HEK293 KCC2, FluoZin-2 fluorescence, MLSMR, primary screen (AID 1456); details: KCC2 cells, thallium flux FluoZin-2 fluorescence; at 10 µM;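 also: slope of fluorescence scaled to starting intensity during 10 to 20 s after thallium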
About 4,100 (2.2%) of roughly 190,000 compounds were called active.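 Rule for the calls: active = thallium flux slope and its plate-corrected score both differing from the plate sample mean at a set confidence after two filtering rounds, in either direction; inactive = the rest.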 For the sample, actives were picked, then their nearest neighbours and some compounds at random.
Give one outcome, nothing more. List: active, inactive

Answered cases to consult:
# Compound, Answer label
measured = [
    ("N#Cc1nc(Cc2ccccc2)oc1NCCc1ccccc1", "active"),
    ("COC(=O)CNc1nc(Cl)nc(N2CCC(C)CC2)n1", "inactive"),
    ("Cc1ccccc1Nc1c(-c2ccccc2)nc2ncccn12", "inactive"),
    ("O=C(OCN1C(=O)c2ccccc2C1=O)/C(=C\\c1ccco1)NC(=O)c1ccccc1", "inactive"),
]

// outcome(item) with item = CCOC(=O)NNC(=O)c1ccc(Cl)cc1
inactive

// outcome(item) with item = Cc1cccc(OCCC(=O)Nc2cc(S(=O)(=O)N3CCCCC3)ccc2N2CCOCC2)c1
inactive

// outcome(item) with item = CC(=O)NC(=S)NNC(=O)c1ccc(Br)cc1
active

// outcome(item) with item = CSc1sc(C(=O)NNC(=O)c2ccc(Cl)cc2)c2c1C=CCC2
active

// outcome(item) with item = CCn1c(SCC(=O)N/N=C/c2ccncc2)nc2ccccc21
inactive

// outcome(item) with item = COc1cc(NC(=O)c2ccc(CNc3c(N4CCCC4)c(=O)c3=O)cc2)cc(OC)c1OC
inactive

// outcome(item) with item = CCOC(=O)C1CCCN(C(=O)/C=C/c2ccc(OC)cc2)C1 (stereo not drawn)
inactive

// outcome(item) with item = Cn1nccc1NC(=O)Nc1ccc(OC(F)(F)F)cc1
inactive

// outcome(item) with item = O=C(CSc1nnc(-c2cccs2)n1-c1ccccc1)N1CCN(C(=O)c2ccco2)CC1
inactive

// outcome(item) with item = CNC(=S)NNC(=O)c1ccc(N(C)C)cc1
inactive

// outcome(item) with item = Cc1cccc(C(=O)OCC(=O)NCC(C)C)c1O
inactive

// outcome(item) with item = Cc1cccc(OCC(=O)Nc2ccccc2F)c1
inactive

// outcome(item) with item = Cc1nnc(SCC(=O)N2CCc3ccccc3C2)s1
inactive

// outcome(item) with item = O=C(Cn1nnc(N2CCCCC2)n1)c1ccc(Cl)c(Cl)c1
inactive

// outcome(item) with item = COc1ccc(Cn2c(O)c(/C=C3/C=CC=N3)c(=O)[nH]c2=O)cc1
inactive

// outcome(item) with item = COc1ccc(CCN2C(=O)N(c3ccc(OC)cc3)C(=O)C2CC(=O)Nc2ccc(OC)cc2)cc1 (stereo not drawn)
inactive

// outcome(item) with item = CC(C)(C)c1ccc(C(=O)NCC(=O)OCN2C(=O)c3ccccc3C2=O)cc1
active

// outcome(item) with item = C/C(Cc1ccccc1)=N\NC(=O)CNC(=O)c1ccc2c(c1)OCCO2
inactive

// outcome(item) with item = Cc1ccc(OC(=O)c2c(C)nn(-c3ccccc3)c2C)cc1
inactive
